Where do these numbers come from? They come from ChEMBL document CHEMBL4811246.

# Tested on: BGC-823
# Assay Text: Cytotoxicity against human BGC-823 cells assessed as reduction in cell viability measured upto 72 hrs by MTT assay
# Format: functional, cell-based
# Condition Info: BGC-823, 72 h
pIC50: −log10 of the molar value.
Observation Type: pIC50

CC(C)Cc1ccc(C(C)C(=O)O)cc1 (stereo not drawn): < 4.30
CC(=O)Oc1ccccc1C(=O)O: < 4.30

# input for lookup
Asked: Query (compound): COc1ccc2cc([C@H](C)C(=O)O)ccc2c1 ; field requested: pIC50
Given back: < 4.30
